Molecular target: E3 ubiquitin-protein ligase SIAH1 (Homo sapiens)
Assay: blockers of Siah-1 interaction with plectin peptide – biochemical, fluorescence polarization, rhodamine-plectin, uHTS, primary screen (AID 1817)
Details: Siah-1 / rhodamine-plectin peptide fluorescence polarization
Active and inactive are the calls of the source.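 The calls were made as follows: active = displacement of at least 50% at 20 µM, with a fluorescence ratio check between 0.3 and a set limit; inactive = the rest.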
Possible outcomes: 1 = active, 0 = inactive

>>> print(df.to_string())
                                    compound  category
 0  Cc1cc(Cl)ccc1NC(=O)CN1CCC(C(O)(c2ccccc2)c2ccccc2)CC1         0
 1  CS(=O)(=O)N1CCN(c2ccc([N+](=O)[O-])c(SCc3ccco3)c2)CC1         0
 2  CCc1nnc(NS(=O)(=O)c2ccc(NC(=S)NC(=O)/C=C/c3ccc(C(C)C)cc3)cc2)s1         1
 3  C[C@]12CCC3C(CC=C4C[C@@H](O)CC[C@@]43C)C1CCC2[C@]1(C)CCC(=O)O1 (some centres undefined)         0
 4                   CN(C)CCOC(=O)CCc1ccccc1         0
 5  Cc1coc2c(C)c3oc(=O)c(CCC(=O)N[C@@H](C)C(=O)N[C@@H](Cc4ccccc4)C(=O)O)c(C)c3cc12         1
 6              C[N+]1(CCNC(=O)/C=N/O)CCCCC1         0
 7     O=c1[nH]c2ccc(S(=O)(=O)N3CCCCC3)cc2s1         0
 8  Cc1ccc(S(=O)(=O)N2CCC(=O)N(C(COCc3cccc(C)c3)Cc3ccccc3)CC2)cc1 (centres undefined)         0
 9  Cc1ccc(NC(=O)CCC(=O)NNC(=O)c2ccccc2[N+](=O)[O-])c(C)c1         0
10            Oc1c(Br)cc(Br)cc1CNc1ccc(F)cc1         0
11  Cc1ccc(C(=O)COc2ccccc2C(=O)Nc2ccccc2)cc1         0
12  Cc1cc(C)nc(N=Nc2c(O)n(Cc3ccc(Cl)cc3)c3ccccc23)n1         0
13  COc1ccc(CCNC(=O)c2ccc(S(=O)(=O)N(C)c3ccccc3)cc2)cc1OC         0
14  c1ccc(C(c2ccccc2)N2CCN(C(c3ccccn3)c3nnnn3C3CCCC3)CC2)cc1 (centres undefined)         0
15  Cc1ccn2c(C(=O)CSc3ccc(Cl)cc3Cl)c(C)nc2c1         0
16  O=S(=O)(Nc1nc2ccccc2nc1Nc1ccc(N2CCOCC2)cc1)c1cc(Cl)ccc1Cl         0
17             Cc1cc(C)c(C#N)c(Nc2ccccc2C)n1         0
18  CC(C)(C)c1ccc(C(CC(=O)O)NC(=O)Cc2ccc(F)cc2)cc1 (centres undefined)         1
19  CC1CCN(S(=O)(=O)c2nnc(NC(=O)c3cccc(Cl)c3)s2)CC1         0
20  O=C(O)c1cc(Cl)c(Cl)cc1C(=O)Nc1cccc2cccnc12         0
21  CCCCn1c(NS(=O)(=O)c2ccc(C)cc2)c(S(=O)(=O)c2ccccc2)c2nc3ccccc3nc21         0
22  C=CCc1cccc2cc(C(=O)Nc3ccc(CC(=O)O)cc3)c(=O)oc12         1
23  O=C(O)CCCCN1C(=O)/C(=C\c2ccc(OCc3ccccc3)c(OCc3ccccc3)c2)SC1=S         0
